MEASUREMENT PROTOCOL: protein stability index of a GFP-peptide fusion (GPS, HEK-293T) (PSI 1-6); higher = more stable;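 further: 24-mer peptide tiles fused after GFP, lentivirally expressed, FACS-sorted into six equal bins by GFP/DsRed ratio, decoded by Illumina sequencing, PSI is the read-weighted mean bin number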
CONDITION DESCRIPTION: treatment: MLN4924 1 uM, 8 h; c terminus: a fixed tail appended
MEASUREMENT TYPE: protein stability index
Response field accepts a number only; no unit should be typed.

Exercise: Which protein stability index reading was recorded for the sequence SKAVFLWNMDKYTMIRKLEGHHHD [WSB1] ?
Key: 2.24

Exercise: Data request, read-out protein stability index, for GDHRSPASAQKFSSRSTVPTPAKR [NET1]
Key: 5.05

Exercise: Please report the recorded protein stability index for DEGRLVLEFSLLSYAFGKFPTVVW [SOAT1] .
Key: 3.07

Exercise: What does the data say about its protein stability index? Entry: EDERWTNNFREYNLHRVAAHELGH [MMP1]
Key: 3.62

Exercise: For SLWERLEFVNGWYILLVTSDVLTI [MCOLN1] , what is its reported protein stability index?
Key: 3.08

Exercise: Look up protein stability index for this sequence: WERVHLIVAGGYDERVLENVEHYQ [ALG2]
Key: 2.48

Exercise: Name the recorded protein stability index for PTIDTGYDSQPQDVLGIRQLERPL [TRAF3IP2] .
Key: 4.4

Exercise: What measured protein stability index goes with TAPLTELLHSRNEGVATYAAAVLF [CTNNB1] ?
Key: 2.36

Exercise: Suppose we examine the sequence EPAPGSALSPAGVCGGAQRPGHLP [CDC25B] ; what protein stability index value has been reported?
Key: 4.49

Exercise: Request the reported protein stability index associated with MSLLPDKKTVHYYAELGQCSVFPA [PLK2]
Key: 2.44

Exercise: protein stability index lookup needed for CGSARPKPYDPPGEKMVAAKVKGE [ATF4] , thanks.
Key: 4.82

Exercise: Data request, read-out protein stability index, for TSSKVNATVPSNMMSVNGQAKTHT [ACBD3]
Key: 4.45

Exercise: I would be grateful if you could share the reported protein stability index for CETCVGSWSIQMRQHHHQSSFPGS .
Key: 2.34

Exercise: State the recorded protein stability index for this entry: LASTSKPVVKLLHNRSNNKYSYTS [KCTD13]
Key: 3.27

Exercise: // lookup protein stability index for TLTKQDTMLKAMFSGRMEVLTDSE [KCTD10]
Key: 4.32

Exercise: Which protein stability index value is on record for APSIDLFSTDAFSSPPQGASPVPE [SNAP91] ?
Key: 5.04

Exercise: I am curious: what protein stability index value has been reported for QSWMWRGLTFLLPFLFFGHFWQLF [TMEM120A] ?
Key: 2.79

Exercise: Quick one: protein stability index of REHELLCRADHGLLLERAAAGSPR [ISL2] ?
Key: 3.89

Exercise: Query: protein stability index; subject: KRYSMYLTPKGGVRTSYQPSSPGR [TRIM29]
Key: 3.37

Exercise: Which measured protein stability index value corresponds to MRLPLPPAQVHSSLSAGEKPGFLA [RASAL3] ?
Key: 3.35

Exercise: Item under review: DTGVAFELRDSSAYHVPNRTLASG [DNAAF3] . Reported protein stability index?
Key: 3.94

Exercise: GET /values?readout=protein stability index&item= PRNGDQWHEIRQGRLPRIPQVLSQ [WEE1]
Key: 3.32

Exercise: Need protein stability index of ITTRVNSEQEHFLIVPFGLLYSEV [ADD1] , thanks.
Key: 2.61

Attribution: the supplement of paper PMC10567573
